Target: glutaredoxin-1 (Grx1) (Mus musculus)
Sequence (Q9QUH0 2-107): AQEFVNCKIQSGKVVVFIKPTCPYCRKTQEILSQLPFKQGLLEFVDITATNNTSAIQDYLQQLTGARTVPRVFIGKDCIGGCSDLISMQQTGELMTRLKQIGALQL
Assay: Grx1 activity in lysates of treated BV2 murine microglia; click-biotin/streptavidin pull-down with MS and western blot

Structure String	Unit Of Measurement	IC50
C#CCOc1cc(C(=O)NCc2ccc(NC(=O)CCl)cc2)cc(C(=O)OC)c1	µM	37

---

molecular target: glutaredoxin-1 (Grx1) (Homo sapiens, UniProt P35754); experiment: isolated enzyme spectrophotometric assay ([…] min pre-incubation, […] GSH); Kitz-Wilson kinetics; tandem MS of the Cys-22 adduct
Sequence (P35754 2-106): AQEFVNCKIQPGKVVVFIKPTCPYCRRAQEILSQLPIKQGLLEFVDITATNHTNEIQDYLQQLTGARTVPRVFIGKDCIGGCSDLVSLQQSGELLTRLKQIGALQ

Structure String	IC50 (µM)
C#CCOc1cc(C(=O)NCc2ccc(NC(=O)CCl)cc2)cc(C(=O)OC)c1	32
